- testConditions: salts of 1,2,3,4-cyclobutanetetracarboxylic acid; 1 ml distilled water with around 20 to 40% by weight of salt, stirred 15 minutes
quantityKind: Salt is water-soluble

Dear colleague, I am looking for the recorded Salt is water-soluble of the following molecule: NCCCCN.O=C(O)C1C(C(=O)O)C(C(=O)O)C1C(=O)O (stereo not shown) [Example V42]
yes

What do you have for CC1(C)CC(N)CC(C)(CN)C1.O=C(O)C1C(C(=O)O)C(C(=O)O)C1C(=O)O (stereo not shown) [Example V54] ?
yes

Follow-up item: NCc1cccc(CN)c1.O=C(O)C1C(C(=O)O)C(C(=O)O)C1C(=O)O (stereo not shown) [Example V55]
yes

Moving on to NCC1CC2CC1CC2CN.O=C(O)C1C(C(=O)O)C(C(=O)O)C1C(=O)O (stereo not shown) [Example B21]
yes
